Where do the numbers come from? From patent US11401278B2.

Test system: SUDHL5
Experiment: Induction of caspase-3/7 activity (Assay 4), SUDHL5
Type: cell-based
Details: caspase-3/7 induction, 3 hours, median
Text: Cellular Assays Assay 4 Induction of Caspase-3/7 Activity Upon Treatment of Cells with Selected Compounds The BH3-domain of MCL-1 sequesters pro-apoptotic proteins, thereby inhibiting apoptosis. In contrast, MCL-1 inhibitors are expected to antagonize this effect leading to an increase in apoptosis, which can be determined by measuring the activity of caspase-3/7. […] For the evaluation of the results, the background measured with “medium-only” was subtracted from all other values. […]
For each record, check the reported EC50: if it is below 200 nM write Y, else write N.

I wonder whether CCc1c2c(nn1C)C(CCC1CCOCC1)N(C)S(=O)(=O)CCCn1c(C(=O)O)c(CCCOc3cccc4cc(F)ccc34)c3ccc(Cl)c-2c31 (single isomer, unassigned; enantiomer 1) [Example 61] has EC50 below 200 nM. Can you tell? Y

Determine whether this compound shows EC50 lower than 200 nM (ties excluded): Cc1c2c(nn1C)CN(C1CC1)S(=O)(=O)CCCn1c(C(=O)O)c(CCCOc3cccc4cc(F)ccc34)c3ccc(Cl)c-2c31 (single isomer, unassigned; enantiomer 1) [Example 42] Y

Does the reported EC50 of the following compound sit strictly below 200 nM? CCc1c2c(nn1C)CN(C1CC1)S(=O)(=O)CCCn1c(C(=O)O)c(CCCOc3cccc4cc(F)ccc34)c3ccc(Cl)c-2c31 (single isomer, unassigned; enantiomer 1) [Example 54] N

Just wondering, is EC50 of CCc1c2c(nn1C)CN(C1CC1)S(=O)(=O)CCCn1c(C(=O)O)c(CCCOc3cccc4cc(F)ccc34)c3ccc(Cl)c-2c31 (racemic) [Example 53] below 200 nM? N

Quick check: EC50 of CCc1c2c(nn1C)CN(C)S(=O)(=O)CCCn1c(C(=O)O)c(CCCOc3cccc4cc(F)ccc34)c3ccc(Cl)c-2c31 (single isomer, unassigned; enantiomer 2) [Example 37] under 200 nM? N

Confirm or reject: EC50 of Cc1c2c(nn1C)CN(C)S(=O)(=O)CCCn1c(C(=O)O)c(CCCOc3cccc4ccccc34)c3ccc(Cl)c-2c31 (single isomer, unassigned; enantiomer 1) [Example 5] lies strictly below 200 nM Y

For this compound, is EC50 lower than 200 nM? CCc1c2c(nn1C)C(CCC1CCOCC1)N(C)S(=O)(=O)CCCn1c(C(=O)O)c(CCCOc3cccc4cc(F)ccc34)c3ccc(Cl)c-2c31 (single isomer, unassigned; enantiomer 2) [Example 62] N
